Source listed as patent US20250289893A1.

Study System: Chinese variant CD1a protein (human) (UniProt P06126)
Sequence (P06126 18-295, change not shown): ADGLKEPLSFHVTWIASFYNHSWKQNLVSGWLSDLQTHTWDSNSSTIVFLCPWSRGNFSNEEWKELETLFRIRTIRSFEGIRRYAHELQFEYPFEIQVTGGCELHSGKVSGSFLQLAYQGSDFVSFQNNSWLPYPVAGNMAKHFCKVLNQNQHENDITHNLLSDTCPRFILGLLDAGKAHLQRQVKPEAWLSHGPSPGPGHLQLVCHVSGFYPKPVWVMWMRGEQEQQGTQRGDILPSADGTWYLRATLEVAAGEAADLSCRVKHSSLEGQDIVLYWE
Protocol Description: ELISA, 0.1 µg/ml antibody
Readout Name: Optical Density (OD)
Response body: numeric value in OD, unit text excluded.

So, 16 (VR11834) (antibody, V domains shown, also called OX16; antibody 16) VH: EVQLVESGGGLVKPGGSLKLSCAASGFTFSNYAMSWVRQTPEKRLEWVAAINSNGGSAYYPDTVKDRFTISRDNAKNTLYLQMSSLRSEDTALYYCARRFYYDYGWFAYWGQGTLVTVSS VL: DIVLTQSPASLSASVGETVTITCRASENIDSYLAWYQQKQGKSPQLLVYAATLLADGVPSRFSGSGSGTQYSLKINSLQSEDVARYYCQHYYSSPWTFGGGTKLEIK ? Its Optical Density (OD) was 1.3
